Measured on: KRAS WT (Homo sapiens, UniProt P01116)
Sequence (P01116 1-188 isoform P01116-2): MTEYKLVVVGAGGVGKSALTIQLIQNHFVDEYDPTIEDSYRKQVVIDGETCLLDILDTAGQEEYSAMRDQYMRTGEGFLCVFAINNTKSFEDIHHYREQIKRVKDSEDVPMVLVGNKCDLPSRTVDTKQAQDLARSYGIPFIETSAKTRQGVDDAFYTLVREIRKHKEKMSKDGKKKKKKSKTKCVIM
Assay comment: HTRF assay, wildtype KRAS interaction with SOS1
Settings: bins <500 nM / 500 nM to 1000 nM, read-out: Inhibition of KRAS WT (IC50)
pIC50: −log10 of the molar value.
Listed below: pIC50 values for each entry.

Solved cases below.
INPUT: Query: pIC50; subject: Cc1nc(C)n(C(=O)N2CC[C@@H](N(C)c3nc(OC[C@@]45CCCN4C[C@H](F)C5)nc4c(F)c(-c5ccc(F)c6sc(N)c(C#N)c56)c(Cl)cc34)[C@H]2C)c1C
OUTPUT: > 6.30

INPUT: Query: pIC50; subject: C=C1CN2CC(=C)CC2(COc2nc(N(CC)[C@@H]3CCN(C(=O)n4cnc(Cl)n4)[C@@H]3C)c3cc(C(F)(F)F)c(-c4ccc(F)c5sc(N)c(C#N)c45)c(F)c3n2)C1
OUTPUT: > 6.30

INPUT: Query: pIC50; subject: Cc1ncn(C(=O)N2CC3CCN(c4nc(OC[C@@]56CCCN5C[C@H](F)C6)nc5c(F)c(-c6ccc(F)c7sc(N)c(C#N)c67)c(Cl)cc45)C3C2)c1C (stereo partly shown)
OUTPUT: > 6.30

INPUT: Query: pIC50; subject: C[C@@H]1[C@H](N(C)c2nc(OC[C@@]34CCCN3C[C@H](F)C4)nc3c(F)c(-c4ccc(F)c5sc(N)c(C#N)c45)c(Cl)cc23)CCN1C(=O)n1ccnc1C1CC1
OUTPUT: > 6.30

INPUT: Query: pIC50; subject: CC[C@@H]1[C@H](N(CC)c2nc(OC[C@@]34CCCN3C[C@H](F)C4)nc3c(F)c(-c4ccc(F)c5sc(N)c(C#N)c45)c(Cl)cc23)CCN1C(=O)n1cnc(F)n1
OUTPUT: > 6.30

INPUT: Query: pIC50; subject: C[C@@H]1[C@H](N(C)c2nc(OC[C@@]34CCCN3C[C@H](F)C4)nc3c(F)c(-c4ccc(F)c5sc(N)c(C#N)c45)c(Cl)cc23)CCN1C(=O)n1ccnc1Cl
OUTPUT: > 6.30

Others:
INPUT: Query: pIC50; subject: CN(c1nc(OC[C@@]23CCCN2C[C@H](F)C3)nc2c(F)c(-c3ccc(F)c4sc(N)c(C#N)c34)c(Cl)cc12)[C@H]1CCN(C(=O)n2cncn2)C1
OUTPUT: > 6.30

INPUT: Query: pIC50; subject: CCN(c1nc(OC[C@@]23CCCN2C[C@H](F)C3)nc2c(F)c(-c3ccc(F)c4sc(N)c(C#N)c34)c(C(F)(F)F)cc12)[C@@H]1CCN(C(=O)n2cnc(C)c2C)[C@@H]1C
OUTPUT: > 6.30

INPUT: Query: pIC50; subject: C[C@@H]1[C@H](N(C)c2nc(OC[C@@]34CCCN3C[C@H](F)C4)nc3c(F)c(-c4ccc(F)c5sc(N)c(C#N)c45)c(Cl)cc23)CCN1C(=O)n1ccnc1C#N
OUTPUT: > 6.30

INPUT: Query: pIC50; subject: Cc1cn(C(=O)N2CC(CN(C)c3nc(OC[C@@]45CCCN4C[C@H](F)C5)nc4c(F)c(-c5ccc(F)c6sc(N)c(C#N)c56)c(Cl)cc34)(C(F)F)C2)cn1
OUTPUT: > 6.30

###

Measured on: KRAS G12V (Homo sapiens, UniProt P01116, G12V)
Construct: made in house; host or cells: E. coli, e.g. BL21 (DE3)
Sequence (P01116 1-188 isoform P01116-2 G12V): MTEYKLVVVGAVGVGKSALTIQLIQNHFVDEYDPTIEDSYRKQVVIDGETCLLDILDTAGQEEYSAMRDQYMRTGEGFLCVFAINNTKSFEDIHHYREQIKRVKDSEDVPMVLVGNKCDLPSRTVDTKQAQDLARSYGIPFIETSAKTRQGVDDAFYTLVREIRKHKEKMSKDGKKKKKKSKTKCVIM
Assay comment: HTRF assay, KRAS G12V interaction with SOS1
Format: biochemical
Settings: bins <500 nM / 500 nM to 1000 nM, read-out: Inhibition of KRAS G12V (IC50)
From the text: This assay can be also used to assess a selective inhibition or reduction of signaling output of a mutant Ras protein relative to a wildtype, or relative to a different mutant Ras protein. For example, the equilibrium interaction of wildtype KRAS or K-Ras mutant (e.g., wildtype or a mutant thereof) with SOS1 (e.g., hSOS1) can be assessed as a proxy or an indication for the ability of a subject compound to bind and inhibit Ras protein. […]
Observed property: IC50

Solved cases below.
INPUT: Query: IC50; subject: CCN(c1nc(OC[C@@]23CCCN2C[C@H](F)C3)nc2c(F)c(-c3ccc(F)c4sc(N)c(C#N)c34)c(Cl)cc12)[C@@H]1CCN(C(=O)n2ccnc2Cl)[C@@H]1C
OUTPUT: < 500 nM

INPUT: Query: IC50; subject: CCN(c1nc(OC[C@@]23CCCN2C[C@H](F)C3)nc2c(F)c(-c3ccc(F)c4sc(N)c(C#N)c34)c(C(F)(F)F)cc12)[C@@H]1CCN(C(=O)n2cnc(C#N)c2C)[C@@H]1C
OUTPUT: < 500 nM

INPUT: Query: IC50; subject: CC[C@@H]1[C@H](N(C)c2nc(OC[C@@]34CCCN3C[C@H](F)C4)nc3c(F)c(-c4ccc(F)c5sc(N)c(C#N)c45)c(Cl)cc23)CCN1C(=O)n1cnc(F)n1
OUTPUT: < 500 nM

Others:
INPUT: Query: IC50; subject: CCN(c1nc(OC[C@@]23CCCN2C[C@H](F)C3)nc2c(F)c(-c3ccc(F)c4sc(N)c(C#N)c34)c(C3CC3)cc12)[C@@H]1CCN(C(=O)n2ccnc2C)[C@@H]1C
OUTPUT: < 500 nM

INPUT: Query: IC50; subject: CC[C@@H]1[C@H](N(C)c2nc(OC[C@@]34CCCN3C[C@H](F)C4)nc3c(F)c(-c4ccc(F)c5sc(N)c(C#N)c45)c(Cl)cc23)CCN1C(=O)n1ccnc1
OUTPUT: < 500 nM

###

Listed below: IC50 values for each entry.
Measured on: KRAS G12D (Homo sapiens, UniProt P01116, G12D)
Construct: made in house; host or cells: E. coli, e.g. BL21 (DE3)
Sequence (P01116 1-188 isoform P01116-2 G12D): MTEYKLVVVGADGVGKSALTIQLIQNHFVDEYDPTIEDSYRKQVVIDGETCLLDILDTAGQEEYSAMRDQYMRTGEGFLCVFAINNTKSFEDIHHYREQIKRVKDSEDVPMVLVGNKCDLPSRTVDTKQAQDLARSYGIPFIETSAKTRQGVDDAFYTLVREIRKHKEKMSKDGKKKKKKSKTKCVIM
Assay comment: HTRF assay, KRAS G12D interaction with SOS1
Assay type: biochemical
Settings: bins <500 nM / 500 nM to 1000 nM, read-out: Inhibition of KRAS G12D (IC50)

INPUT: // fetch KRAS G12D (Homo sapiens, UniProt P01116, G12D) IC50 for CN(c1nc(OC[C@@]23CCCN2C[C@H](F)C3)nc2c(F)c(-c3ccc(F)c4sc(N)c(C#N)c34)c(Cl)cc12)[C@H]1CCN(C(=O)n2ccnc2)C1
OUTPUT: < 500 nM

INPUT: // fetch KRAS G12D (Homo sapiens, UniProt P01116, G12D) IC50 for CC[C@@H]1[C@H](N(C)c2nc(OC[C@@]34CCCN3C[C@H](F)C4)nc3c(F)c(-c4ccc(F)c5sc(N)c(C#N)c45)c(Cl)cc23)CCN1C(=O)n1ccnc1
OUTPUT: < 500 nM

Others:
INPUT: // fetch KRAS G12D (Homo sapiens, UniProt P01116, G12D) IC50 for CCN(c1nc(OC[C@@]23CCCN2C[C@H](F)C3)nc2c(F)c(-c3ccc(F)c4sc(N)c(C#N)c34)c(Cl)cc12)[C@@H]1CCN(C(=O)n2cnc(C)c2)[C@@H]1C
OUTPUT: < 500 nM

###

Measured on: KRAS G12S (Homo sapiens, UniProt P01116, G12S)
Construct: made in house; host or cells: E. coli, e.g. BL21 (DE3)
Sequence (P01116 1-188 isoform P01116-2 G12S): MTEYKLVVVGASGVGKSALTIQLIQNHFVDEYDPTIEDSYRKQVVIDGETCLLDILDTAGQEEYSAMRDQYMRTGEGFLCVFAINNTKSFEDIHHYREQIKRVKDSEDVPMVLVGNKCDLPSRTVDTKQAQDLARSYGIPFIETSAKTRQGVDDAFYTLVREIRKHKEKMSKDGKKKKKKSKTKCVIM
Assay comment: HTRF assay, KRAS G12S interaction with SOS1
Format: biochemical
Settings: bins <500 nM / 500 nM to 1000 nM, read-out: Inhibition of KRAS G12S (IC50)
Listed below: IC50 values for each entry.

Solved cases below.
INPUT: Query: IC50; subject: CCN(c1nc(OC[C@@]23CCCN2C[C@H](F)C3)nc2c(F)c(-c3ccc(F)c4sc(N)c(C#N)c34)c(C(F)(F)F)cc12)[C@@H]1CCN(C(=O)n2cc(C)nc2Cl)[C@@H]1C
OUTPUT: < 500 nM

INPUT: Query: IC50; subject: Cc1c(C#N)ncn1C(=O)N1C[C@]2(CCCCN(c3nc(OC[C@@]45CCCN4C[C@H](F)C5)nc4c(F)c(-c5ccc(F)c6sc(N)c(C#N)c56)c(Cl)cc34)C2)[C@H]1C1(C)CC1
OUTPUT: < 500 nM

Please find the next compound below.
INPUT: Query: IC50; subject: Cc1cn(C(=O)N2CC(CN(C)c3nc(OC[C@@]45CCCN4C[C@H](F)C5)nc4c(F)c(-c5ccc(F)c6sc(N)c(C#N)c56)c(Cl)cc34)(C(F)F)C2)cn1
OUTPUT: < 500 nM

###

Measured on: KRAS G12D (Homo sapiens, UniProt P01116, G12D)
Construct: made in house; host or cells: E. coli, e.g. BL21 (DE3)
Assay comment: HTRF assay, KRAS G12D interaction with SOS1
Type: biochemical
Settings: bins <500 nM / 500 nM to 1000 nM, read-out: Inhibition of KRAS G12D (IC50)
pIC50: −log10 of the molar value.
Listed below: pIC50 values for each entry.

Solved cases below.
INPUT: Query: pIC50; subject: Cc1cn(C(=O)N(C)CC2(F)CN(c3nc(OC[C@@]45CCCN4C[C@H](F)C5)nc4c(F)c(-c5ccc(F)c6sc(N)c(C#N)c56)c(Cl)cc34)C2)cn1
OUTPUT: > 6.30

INPUT: Query: pIC50; subject: CC1C(N(C)c2nc(OC[C@@]34CCCN3C[C@H](F)C4)nc3c(F)c(-c4ccc(F)c5sc(N)c(C#N)c45)c(Cl)cc23)CCN1C(=O)n1cnc(F)n1 (stereo partly shown)
OUTPUT: > 6.30

INPUT: Query: pIC50; subject: C[C@@H]1[C@H](N(C)c2nc(OC[C@@]34CCCN3C[C@H](F)C4)nc3c(F)c(-c4ccc(F)c5sc(N)c(C#N)c45)c(C(F)(F)F)cc23)CCN1C(=O)n1ccnc1
OUTPUT: > 6.30

Others:
INPUT: Query: pIC50; subject: CC[C@H]1N(C(=O)n2cnc(C#N)c2C)C[C@]12CCCCN(c1nc(OC[C@@]34CCCN3C[C@H](F)C4)nc3c(F)c(-c4ccc(F)c5sc(N)c(C#N)c45)c(Cl)cc13)C2
OUTPUT: > 6.30

INPUT: Query: pIC50; subject: Cc1c(C#N)ncn1C(=O)N1C[C@]2(CCCCN(c3nc(OC[C@@]45CCCN4C[C@H](F)C5)nc4c(F)c(-c5ccc(F)c6sc(N)c(C#N)c56)c(Cl)cc34)C2)[C@H]1C1(C)CC1
OUTPUT: > 6.30

INPUT: Query: pIC50; subject: Cc1c(C#N)ncn1C(=O)N1C[C@]2(CC[C@H](C)N(c3nc(OC[C@@]45CCCN4C[C@H](F)C5)nc4c(F)c(-c5ccc(F)c6sc(N)c(C#N)c56)c(Cl)cc34)C2)[C@H]1C1(C)CC1
OUTPUT: > 6.30

INPUT: Query: pIC50; subject: CCN(c1nc(OC[C@@]23CCCN2C[C@H](F)C3)nc2c(F)c(-c3ccc(F)c4sc(N)c(C#N)c34)c(Cl)cc12)[C@@H]1CCN(C(=O)n2ccnc2Cl)[C@@H]1C
OUTPUT: > 6.30

INPUT: Query: pIC50; subject: CC(C)[C@@H]1C[C@H](N(C)c2nc(OC[C@@]34CCCN3C[C@H](F)C4)nc3c(F)c(-c4ccc(F)c5sc(N)c(C#N)c45)c(Cl)cc23)CN1C(=O)n1cnc(Cl)n1
OUTPUT: 6.00 to 6.30

INPUT: Query: pIC50; subject: CN(c1nc(OC[C@@]23CCCN2C[C@H](F)C3)nc2c(F)c(-c3ccc(F)c4sc(N)c(C#N)c34)c(Cl)cc12)[C@H]1CCN(C(=O)n2cncn2)C1
OUTPUT: > 6.30

INPUT: Query: pIC50; subject: C[C@@H]1[C@H](N(C)c2nc(OC[C@@]34CCCN3C[C@H](F)C4)nc3c(F)c(-c4ccc(F)c5sc(N)c(C#N)c45)c(Cl)cc23)CCN1C(=O)n1ccnc1C1CC1
OUTPUT: > 6.30

All figures here come from patent US20260217735A1.
